System: ESCHERICHIA COLI H560
Experiment: In vitro antibacterial activity, MIC, BHI agar dilution
Assay type: cell-based
Conditions: E. coli H560, unit assumed
readoutName: MIC

Solved cases below.
compound	MIC
CC[C@H]1OC(=O)[C@H](C)C(=O)[C@H](C)[C@@H](O[C@@H]2O[C@H](C)C[C@H](N(C)C)[C@H]2O)[C@](C)(OC)C[C@@H](C)C2=NC[C@H](Cc3ccc(NC(=O)OCc4ccccc4)cc3)N3C(=O)O[C@@]1(C)[C@H]3[C@H]2C	50 µg/mL
CC[C@H]1OC(=O)[C@H](C)C(=O)[C@H](C)[C@@H](O[C@@H]2O[C@H](C)C[C@H](N(C)C)[C@H]2O)[C@](C)(OC)C[C@@H](C)C2=NC[C@@H](C)N3C(=O)O[C@@]1(C)[C@H]3[C@H]2C	25 µg/mL
C=CCN1CC2N=C3[C@H](C)C[C@@](C)(OC)[C@H](O[C@@H]4O[C@H](C)C[C@H](N(C)C)[C@H]4O)[C@@H](C)C(=O)[C@@H](C)C(=O)O[C@H](CC)[C@@]4(C)OC(=O)N(C2C1)[C@@H]4[C@H]3C (stereo partly shown)	50 µg/mL

Now consider a different compound.
Prompt line: Supply recorded MIC for `CC[C@H]1OC(=O)[C@H](C)C(=O)[C@H](C)[C@@H](O[C@@H]2O[C@H](C)C[C@H](N(C)C)[C@H]2O)[C@](C)(OC)C[C@@H](C)C2=N[C@@H]3CN(C(=O)OCc4ccccc4)C[C@@H]3N3C(=O)O[C@@]1(C)[C@H]3[C@H]2C` here.
Response line: 100 µg/mL

Values were extracted from patent US6274715A.
